- study_target: T1, human SLITRK6 extracellular domain linked to his tag (human, UniProt Q9H5Y7 27-608)
- T1 construct: extracellular domain; also called huSLITRK6; Hu SLITRK6; not shown: his tag
- assay_comment: BLI binning on huSLITRK6-his; Ab1 = row antibody first, then Ab2 (competitor) = hu1H2-13
Could you please report measured epitope binning signal for the items listed next?
Just the number, please.

Input: So what does the record say about epitope binning signal for hu1H2-13 (antibody, V domains shown) VH: EVQLVESGGGLVQPGGSLRLSCAASGFTFSDYGLHWVRQAPGKGLEWVAYISSGSSTVYFADTLKGRFTISRDNAKNSLYLQMNSLRAEDTAVYYCTRGTWYFDVWGRGTLVTVSS VL: DIQMTQSPSSLSASVGDRVTITCRTSENIHSYLAWYQQKPGKSPQLLVYNAKTLADGVPSRFSGSGSGTDYTLTISSLQPEDFGTFYCQHFWTTSRTFGGGTKVEIK ?
Output: 0.0284

Input: Do the same for hu1H2-03 (antibody, V domains shown, see m20) VH: EVQLVESGGGLVQPGGSLRLSCAASGFTFSDYGLHWVRQAPGKGLEWVSYISSGSSTVYFADTLKGRFTISRDNAKNSLYLQMNSLRAEDTAVYYCTRGTWYFDVWGRGTLVTVSS VL: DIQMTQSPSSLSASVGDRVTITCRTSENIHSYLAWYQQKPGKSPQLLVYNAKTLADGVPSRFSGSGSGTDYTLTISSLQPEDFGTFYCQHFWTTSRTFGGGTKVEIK please
Output: 0.0122

Input: Do the same for Sirtratumab (antibody, V domains shown, Prior-art benchmark antibody; also called Sirtratuzumab) VH: QVQLVESGGGVVQPGRSLRLSCAASGFTFSSYGMHWVRQAPGKGLEWVAVIWYDGSNQYYADSVKGRFTISRDNSKNTLFLQMHSLRAEDTAVYYCARGLTSGRYGMDWGQGTTVTVSS VL: DIVMTQSPLSLPVTPGEPASISCRSSQSLLLSHGFNYLDWYLQKPGQSPQLLIYLGSSRASGVPDRFSGSGSGTDFTLKISRVEAEDVGLYYCMQPLQIPWTFGQGTKVEIK please
Output: 0.282

Input: Do the same for phA108 (antibody, V domains shown, From phage display, then full-length construction; Only the variable regions are tied to the name) VH: QVQLVQSGAEVKKPGASVKVSCTASGYIFNDYYLHWVRQAPGQGLEWVGIINPSGGSPVYAQKFQGRVTMTRDTSTNTVYMELSSLRSEDTAVYYCARGMVRGVRLFDYWGQGTLVTVSA VL: EIVLTQSPATLSLSPGERATLSCRASQSVSSYLAWYQQKPGQTPRLLIYDASNRATGVPARFSGSGSGTDFTLTISSLETEDFAVYYCQQRTNWPLTFGGGTKVEIK please
Output: 0.285
